Assay read-out pIC50; system under study: PI3Kalpha (Homo sapiens (Human)).
Sequence (P42336 whole entry, looked up): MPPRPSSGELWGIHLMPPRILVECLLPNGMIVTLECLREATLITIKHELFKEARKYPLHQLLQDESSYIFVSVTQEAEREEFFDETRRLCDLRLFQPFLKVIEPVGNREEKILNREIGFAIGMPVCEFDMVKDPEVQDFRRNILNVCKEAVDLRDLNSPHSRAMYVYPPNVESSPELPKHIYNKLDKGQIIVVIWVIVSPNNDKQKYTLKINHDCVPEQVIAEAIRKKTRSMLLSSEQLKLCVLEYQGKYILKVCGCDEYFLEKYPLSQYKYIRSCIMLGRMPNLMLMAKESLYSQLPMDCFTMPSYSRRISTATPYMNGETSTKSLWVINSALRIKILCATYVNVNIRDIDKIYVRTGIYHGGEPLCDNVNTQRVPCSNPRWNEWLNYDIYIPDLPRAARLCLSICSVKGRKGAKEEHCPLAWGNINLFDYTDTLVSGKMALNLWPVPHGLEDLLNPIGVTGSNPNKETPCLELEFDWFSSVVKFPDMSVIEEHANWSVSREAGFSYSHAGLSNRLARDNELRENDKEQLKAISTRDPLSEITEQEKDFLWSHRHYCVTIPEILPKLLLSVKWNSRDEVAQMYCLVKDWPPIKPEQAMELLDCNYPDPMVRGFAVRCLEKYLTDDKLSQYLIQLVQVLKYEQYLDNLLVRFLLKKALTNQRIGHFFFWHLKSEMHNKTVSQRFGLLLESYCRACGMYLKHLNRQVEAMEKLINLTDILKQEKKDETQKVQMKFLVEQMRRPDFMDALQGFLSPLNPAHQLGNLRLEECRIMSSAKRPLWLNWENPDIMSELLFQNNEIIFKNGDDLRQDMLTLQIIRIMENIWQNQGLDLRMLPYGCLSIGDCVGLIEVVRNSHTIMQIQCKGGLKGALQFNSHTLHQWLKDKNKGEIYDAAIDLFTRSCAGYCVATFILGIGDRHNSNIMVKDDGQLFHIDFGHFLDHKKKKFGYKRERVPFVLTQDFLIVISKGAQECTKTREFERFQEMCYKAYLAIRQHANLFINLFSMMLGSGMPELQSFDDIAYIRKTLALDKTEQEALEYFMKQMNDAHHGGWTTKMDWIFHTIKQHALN
pIC50: −log10 of the molar value.
Readout Name: pIC50

- CCc1ncnc(-c2ccc(C(=O)N3CCN(C4CCOCC4)CC3)c(F)c2)c1C#Cc1ccc(NC)nc1 [Example E-179]: 6.56
- CCc1ncnc(-c2ccc(C(=O)N3CCC(C(C)(C)O)CC3)c(Cl)c2)c1C#Cc1ccc(N)nc1 [Example E-20]: 7.00
- CCc1ncnc(-c2ccc(C(=O)N3CCC(OC)CC3)c(Cl)c2)c1C#Cc1ccc(N)nc1 [Example D-142]: 7.03
- CCc1ncnc(-c2ccc(C(=O)NC)c(Cl)c2)c1C#Cc1ccc(C)nc1 [Example C-16]: 6.63
- CCc1ncnc(-c2ccc(C(=O)N3CCN(c4ccncc4)CC3)c(Cl)c2)c1C#Cc1ccc(N)nc1 [Example D-155]: 6.68
- CCc1ncnc(-c2cc(F)c(C(=O)N3CCN(CCC#N)CC3)c(Cl)c2)c1C#Cc1ccc(N)nc1 [Example E-243]: 6.96
- CCNc1ccc(C#Cc2c(CC)ncnc2-c2ccc(C(=O)N3CCC4(CC3)COC4)c(F)c2)cn1 [Example E-263]: 6.69

---

pIC50: −log10 of the molar value.
# pIC50 per entry for PI3Kalpha (Homo sapiens (Human))
Readout Name: pIC50

- CCc1ncnc(-c2ccc(C(=O)N3CCN(CC)CC3)c(C(F)(F)F)c2)c1C#Cc1ccc(N)nc1: 6.73
- CCc1ncnc(-c2ccc(C(=O)N(C)C3CCS(=O)(=O)C3)c(Cl)c2)c1C#Cc1ccc(N)nc1 (stereo not drawn): 7.32
- CCc1ncnc(-c2cc(F)c(C(=O)N3CCN(C)C(=O)C3)c(F)c2)c1C#Cc1ccc(NC)nc1: 6.76
- CCCCN1CCN(C(=O)c2ccc(-c3ncnc(CC)c3C#Cc3ccc(N)nc3)cc2F)CC1: 6.66
- CCc1ncnc(-c2ccc(C(=O)N(C)OC)cc2)c1C#Cc1ccc(N)nc1: 7.18
- CCc1ncnc(-c2ccc(C(=O)N3CCC(N4CCCCCC4)CC3)c(C)c2)c1C#Cc1ccc(N)nc1: 6.54
- CCc1ncnc(-c2ccc(C(=O)N3CCN4CCCC[C@H]4C3)c(F)c2)c1C#Cc1ccc(N)nc1: 6.77
- Cc1ncnc(-c2ccc(C(=O)N3CCN(C4CCS(=O)(=O)C4)CC3)cc2)c1C#Cc1ccc(N)nc1 (stereo not drawn): 6.87
- Cc1ncnc(-c2ccc(C(=O)N3CC(O)CO3)c(F)c2)c1C#Cc1ccc(N)nc1 (stereo not drawn): 7.28
- CCc1ncnc(-c2ccc(C(=O)N3CCN(CCNS(C)(=O)=O)CC3)c(F)c2)c1C#Cc1ccc(N)nc1: 7.09
- CCc1ncnc(-c2ccc(C(=O)NC)c(F)c2)c1C#Cc1ccc(N)nc1: 6.65
- CCc1ncnc(-c2ccc(C(=O)N3CC(O)CO3)c(Cl)c2)c1C#Cc1ccc(N)nc1 (stereo not drawn): 7.05
- CCc1ncnc(-c2ccc(C(=O)N(C)C)c(F)c2)c1C#Cc1ccc(N)nc1 [Example C-15A]: 7.24
- CCc1ncnc(-c2ccc(C(=O)N3CCN(C)CC3)c(F)c2)c1C#Cc1ccc(N)nc1: 6.67
- CCc1ncnc(-c2ccc(C(=O)N3CCC4(CC3)OCCCO4)c(Cl)c2)c1C#Cc1ccc(N)nc1: 7.04
- CCc1ncnc(-c2cc(F)c(C(=O)N3CCN(C(C)C)CC3)c(F)c2)c1C#Cc1ccc(N)nc1: 6.62
- CCc1ncnc(-c2ccc(C(=O)N3CCCN(C)CC3)c(F)c2)c1C#Cc1ccc(N)nc1: 6.39
- CCc1ncnc(-c2ccc(C(=O)N3CCC(N4CCCC4)CC3)c(F)c2)c1C#Cc1ccc(N)nc1: 6.49
- CCc1ncnc(-c2ccc(C(=O)N3CCCCO3)c(F)c2)c1C#Cc1ccc(N)nc1: 6.98
- CCc1ncnc(-c2ccc(C(=O)NC3CCCN(C4CCN(C)CC4)C3)c(F)c2)c1C#Cc1ccc(N)nc1 (stereo not drawn): 6.47
- CCc1ncnc(-c2ccc(C(=O)N3CCC4(CC3)CN(C)C4)c(Cl)c2)c1C#Cc1ccc(N)nc1: 6.20
- CCc1ncnc(-c2ccc(Cl)c(C(=O)NC)c2)c1C#Cc1ccc(N)nc1: 7.17
- CCc1ncnc(-c2ccc(C(=O)N3CCC4(CC3)CN(C)C4)c(F)c2)c1C#Cc1ccc(N)nc1: 6.48
- CCc1ncnc(-c2ccc(C(=O)N3CCCOCC3)c(Cl)c2)c1C#Cc1ccc(N)nc1 [Example E-39]: 7.18
- Cc1ncnc(-c2ccc(C3CC3)nc2)c1C#Cc1ccc(N)nc1: 7.37
- CCc1ncnc(-c2ccc(C(=O)N(C)CCOC)c(Cl)c2)c1C#Cc1ccc(N)nc1: 7.20
- CCc1ncnc(-c2ccc(C(=O)N3CCN(CC4CC4)CC3)c(Cl)c2)c1C#Cc1ccc(N)nc1 [Example E-18]: 6.64
- CCc1ncnc(-c2ccc(C(=O)N3C[C@H]4CN(C(=O)OC(C)(C)C)C[C@H]4C3)c(F)c2)c1C#Cc1ccc(N)nc1: 6.62
- CCc1ncnc(-c2ccc(C(=O)N3CCN(Cc4cc(C)no4)CC3)c(F)c2)c1C#Cc1ccc(N)nc1: 6.70
- CCc1ncnc(-c2ccc(C(=O)N3CCN(CCO)CC3)c(OC)c2)c1C#Cc1ccc(N)nc1: 6.82

---

Observed IC50 values for PI3Kalpha (Homo sapiens (Human), UniProt P42336) are listed in what follows.
Readout Name: IC50 (nM)

- CCc1ncnc(-c2ccc(C(=O)N3CCN(CCOCCO)CC3)c(F)c2)c1C#Cc1ccc(N)nc1: 109
- CCc1ncnc(-c2ccc(C(=O)N3CCN(CCO)CC3)c(F)c2)c1C#Cc1ccc(N)nc1: 109
- CCc1ncnc(-c2ccc(C(=O)N3CC[C@H](N(C)C)C3)c(F)c2)c1C#Cc1ccc(NC)nc1: 275
- CCc1ncnc(-c2ccc(C(=O)N3CCN(C)CC3)c(F)c2)c1C#Cc1ccc(N)nc1C: 270
- CCc1ncnc(-c2ccc(C(=O)N3CCn4ccnc4C3)c(Cl)c2)c1C#Cc1ccc(N)nc1: 23
- CCc1ncnc(-c2ccc(C(=O)N3CCN(c4ccccn4)CC3)c(Cl)c2)c1C#Cc1ccc(N)nc1: 118
- CCc1ncnc(-c2ccc(C(=O)NC3CC(N4CCC(N5CCCC5)CC4)C3)c(F)c2)c1C#Cc1ccc(N)nc1 (stereo not shown): 308

---

Listed here: compounds with reported IC50 for PI3Kalpha (Homo sapiens (Human)).
Readout Name: IC50 (nM)

• CCc1cc(-c2ncnc(CC)c2C#Cc2ccc(N)nc2)ccn1 = 40
• CCc1ncnc(-c2ccc(C(=O)N3CCN(C4CCS(=O)(=O)C4)CC3)c(F)c2)c1C#Cc1ccc(N)nc1 (stereo not drawn) = 95
• CCc1ncnc(-c2ccc(C(=O)N3CCC(O)CC3)c(F)c2)c1C#Cc1ccc(N)nc1 = 85
• CCc1ncnc(-c2cc(Cl)c(C(=O)N3CC4(CN(C)C4)C3)c(Cl)c2)c1C#Cc1ccc(N)nc1 = 599
• CCc1ncnc(-c2cc(F)c(C(=O)N3CCC(C(C)(C)O)CC3)c(F)c2)c1C#Cc1ccc(NC)nc1 = 600
• CCc1ncnc(-c2ccc(C(=O)N3CCC4(CC3)COC4)c(F)c2)c1C#Cc1ccc(N)nc1 = 154
• CCc1ncnc(-c2ccc(C(=O)N3CCCCO3)cc2)c1C#Cc1ccc(N)nc1 = 77
• Cc1ncnc(-c2ccc(C(=O)N3CCCO3)c(Cl)c2)c1C#Cc1ccc(N)nc1 = 37
• CCc1ncnc(-c2ccc(C(=O)N3CCN(c4ccncc4)CC3)c(Cl)c2)c1C#Cc1ccc(N)nc1 [Example E-37] = 209
• CCNc1ccc(C#Cc2c(CC)ncnc2-c2ccc(C(=O)N3CC4(CN(C(=O)OC(C)(C)C)C4)C3)c(F)c2)cn1 = 421
• CCc1ncnc(-c2cc(F)c(C(=O)N3CCN(CCCS(C)(=O)=O)CC3)c(F)c2)c1C#Cc1ccc(N)nc1 = 45.8
• CCc1ncnc(-c2ccc(C(=O)N3CCN(c4ccccc4)CC3)c(Cl)c2)c1C#Cc1ccc(N)nc1 = 89
• CCc1ncnc(-c2cc(F)c(C(=O)N3CCN(C(C)(C)C)CC3)c(F)c2)c1C#Cc1ccc(N)nc1 = 1320
• CCc1ncnc(-c2ccc(C(=O)N3CCN(CC(=O)N(C)C)CC3)c(F)c2)c1C#Cc1ccc(N)nc1 = 115
• CCc1ncnc(-c2cc(Cl)c(C(=O)N3CC[C@@H](N(C)C)C3)c(Cl)c2)c1C#Cc1ccc(N)nc1 = 235

---

- System Under Test: PI3Kalpha (Homo sapiens (Human))
Attribute: IC50
Readout Name: IC50 (nM)

* CCc1ncnc(-c2cc(F)c(C(=O)N3CCN(C4COC4)CC3)c(Cl)c2)c1C#Cc1ccc(N)nc1 | 173
* CCc1ncnc(-c2cc(F)c(C(=O)N3CCN(CCC#N)CC3)c(F)c2)c1C#Cc1ccc(NC)nc1 | 213
* CCc1ncnc(-c2cc(F)c(C(=O)NCCN3CCNCC3)c(F)c2)c1C#Cc1ccc(N)nc1 | 165
* CCc1ncnc(-c2ccc(C(=O)N(C)CCCOC)c(Cl)c2)c1C#Cc1ccc(N)nc1 | 68
